Biological target: MabA-C60V/S144L (Mycobacterium tuberculosis, UniProt P9WGT3, C60V/S144L)
Settings: read-out: KD for the cofactor
pKd: −log10 of the molar value.

compound_structure_string: NC(=O)C1=CN([C@@H]2O[C@H](COP(=O)(O)OP(=O)(O)OC[C@H]3O[C@@H](n4cnc5c(N)ncnc54)[C@H](OP(=O)(O)O)[C@@H]3O)[C@@H](O)[C@H]2O)C=CC1
pKd: 4.95

Cited source for all entries: patent US20100113291A1
